Target: binding partner (antigen) of C5A (XPA23)
Assay: Biacore, K-off, fold vs original
Reported fold difference in affinity vs original by item:
Output should be the measured figure followed by the unit it is expressed in.

Measured fold difference in affinity vs original of C5A (XPA23) VH S105V (antibody, V domains shown) VH: EVQLLESGGGLVQPGGSLRLSCAASGFTFSKYFMFWVRQAPGKGLEWVSVISPSGGMTRYADSVKGRFTISRDNSKNTLYLQMNSLRAEDTAVYYCARVGYGGNVDYWGQGTLVTVSS VL: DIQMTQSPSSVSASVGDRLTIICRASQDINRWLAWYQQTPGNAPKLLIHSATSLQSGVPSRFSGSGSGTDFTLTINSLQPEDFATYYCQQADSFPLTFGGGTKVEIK : 0.08 fold

C5A (XPA23) VH Y107W (antibody, V domains shown) VH: EVQLLESGGGLVQPGGSLRLSCAASGFTFSKYFMFWVRQAPGKGLEWVSVISPSGGMTRYADSVKGRFTISRDNSKNTLYLQMNSLRAEDTAVYYCARVGYGGNSDWWGQGTLVTVSS VL: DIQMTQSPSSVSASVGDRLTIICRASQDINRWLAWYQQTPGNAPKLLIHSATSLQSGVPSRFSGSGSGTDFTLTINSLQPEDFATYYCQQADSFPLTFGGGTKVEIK yielded fold difference in affinity vs original of 0.89 fold
